Data provenance is patent US11713338B2.

Biological target: recombinant integrin α4β7 (Homo sapiens, UniProt P13612+P26010, DEL724-798)
Construct: purchased R&D Systems 5397-A3-050
Assay: Integrin α4β7—MAdCAM-1 ELISA competition assay
Format: binding
Conditions: read-out: ELISA a4b7 Assay IC50
// NB: equality with 30 nM counts as FALSE; only IC50 strictly below is TRUE

Query :: Does this compound meet the criterion IC50 < 30 nM? CC(C)C[C@@H]1NC(=O)c2ccc(N(C)C)c(c2)CNC(=O)[C@@H]2CCCN2[C@H](C(=O)NC(C)(C)C)[C@H](C)NC(=O)[C@H]([C@@H](C)O)NC(=O)[C@H](CC(=O)O)NC1=O [Compound 380]
Result :: FALSE

Query :: Does this compound meet the criterion IC50 < 30 nM? CC(C)C[C@@H]1NC(=O)[C@@H](Cc2ccncc2)NC(=O)[C@@H]2CCCN2[C@H](C(=O)NC(C)(C)C)[C@H](C)NC(=O)[C@H]([C@@H](C)O)NC(=O)[C@H](CC(=O)O)NC1=O [Compound 62]
Result :: TRUE

Query :: Does this compound meet the criterion IC50 < 30 nM? CC(C)C[C@@H]1NC(=O)c2ccc(-c3cccc(CN)c3)c(c2)CNC(=O)[C@@H]2CCCN2[C@H](C(=O)NC(C)(C)C)[C@H](C)NC(=O)[C@H]([C@@H](C)O)NC(=O)[C@H](CC(=O)O)NC1=O [Compound 382]
Result :: TRUE

Query :: Does this compound meet the criterion IC50 < 30 nM? CC(C)C[C@@H]1NC(=O)[C@H]2CCCCN2C(=O)[C@H](Cc2cccc3ccccc23)NC(=O)[C@@H]2CCCN2[C@H](C(=O)NC(C)(C)C)[C@H](C)NC(=O)[C@H]([C@@H](C)O)NC(=O)[C@H](CC(=O)O)NC1=O [Compound 143]
Result :: FALSE

Query :: Does this compound meet the criterion IC50 < 30 nM? CC(C)C[C@@H]1NC(=O)CN(C)C(=O)[C@H](Cc2ccc(-c3ccccc3)cc2)NC(=O)[C@@H]2CCCN2[C@H](C(=O)NC(C)(C)C)[C@H](C)NC(=O)[C@H]([C@@H](C)O)NC(=O)[C@H](CC(=O)O)NC1=O [Compound 116]
Result :: FALSE

Query :: Does this compound meet the criterion IC50 < 30 nM? CC(C)C[C@@H]1NC(=O)C[C@H](CCCCN)NC(=O)[C@H](Cc2ccc(-c3ccccc3OC(F)(F)F)cc2)NC(=O)[C@@H]2CCCN2[C@H](C(=O)NC(C)(C)C)[C@H](C)NC(=O)[C@H]([C@@H](C)O)NC(=O)[C@H](CC(=O)O)NC1=O [Compound 262]
Result :: FALSE

Query :: Does this compound meet the criterion IC50 < 30 nM? CC(C)C[C@@H]1NC(=O)[C@H]2CCCCN2C(=O)[C@H](Cc2ccccc2-c2ccccc2)NC(=O)[C@@H]2CCCN2[C@H](C(=O)NC(C)(C)C)[C@H](C)NC(=O)[C@H]([C@@H](C)O)NC(=O)[C@H](CC(=O)O)NC1=O [Compound 134]
Result :: TRUE

Query :: Does this compound meet the criterion IC50 < 30 nM? CC(C)C[C@@H]1NC(=O)[C@H]2CCCCN2C(=O)[C@@H]2CCCN2[C@H](C(=O)NC(C)(C)C)[C@H](C)NC(=O)[C@H]([C@@H](C)O)NC(=O)[C@H](CC(=O)O)NC1=O [Compound 51]
Result :: FALSE

Query :: Does this compound meet the criterion IC50 < 30 nM? CC(C)C[C@@H]1NC(=O)[C@@H](CCCCN)NC(=O)[C@H](Cc2ccc(O)cc2)NC(=O)[C@@H]2CCCN2[C@H](C(=O)NC(C)(C)C)[C@H](C)NC(=O)[C@H]([C@@H](C)O)N(C)C(=O)[C@H](CC(=O)O)NC1=O [Compound 121]
Result :: FALSE

----------
Molecular target: recombinant integrin α4β1 (Homo sapiens, UniProt P05556+P13612)
Construct: purchased R&D Systems 5397-A3-050
Assay: Integrin α4β1—VCAM-1 competition ELISA
Format: binding
Conditions: read-out: ELISA a4b1 Assay IC50
outcomeMeasure: IC50 (nM)
Unit nM implied. Number only.

Looking up `CC(C)C[C@@H]1NC(=O)[C@H](Cc2csc(-c3ccccn3)n2)NC(=O)[C@@H]2CCCN2[C@H](C(=O)NC(C)(C)C)[C@H](C)NC(=O)[C@H]([C@@H](C)O)NC(=O)[C@H](CC(=O)O)NC1=O` , I found its IC50 recorded as 303

Looking up `CC(C)C[C@@H]1NC(=O)[C@H](Cc2ccc3ccccc3c2)NC(=O)[C@@H]2CCCN2[C@H](C(=O)NC(C)(C)C)[C@H](C)NC(=O)[C@H]([C@@H](C)O)NC(=O)[C@H](CC(=O)O)NC1=O` , I found its IC50 recorded as 70

----------
Molecular target: recombinant integrin α4β7 (Homo sapiens, UniProt P13612+P26010, DEL724-798)
Construct: purchased R&D Systems 5397-A3-050
Sequence (P13612 34-970 limits assumed): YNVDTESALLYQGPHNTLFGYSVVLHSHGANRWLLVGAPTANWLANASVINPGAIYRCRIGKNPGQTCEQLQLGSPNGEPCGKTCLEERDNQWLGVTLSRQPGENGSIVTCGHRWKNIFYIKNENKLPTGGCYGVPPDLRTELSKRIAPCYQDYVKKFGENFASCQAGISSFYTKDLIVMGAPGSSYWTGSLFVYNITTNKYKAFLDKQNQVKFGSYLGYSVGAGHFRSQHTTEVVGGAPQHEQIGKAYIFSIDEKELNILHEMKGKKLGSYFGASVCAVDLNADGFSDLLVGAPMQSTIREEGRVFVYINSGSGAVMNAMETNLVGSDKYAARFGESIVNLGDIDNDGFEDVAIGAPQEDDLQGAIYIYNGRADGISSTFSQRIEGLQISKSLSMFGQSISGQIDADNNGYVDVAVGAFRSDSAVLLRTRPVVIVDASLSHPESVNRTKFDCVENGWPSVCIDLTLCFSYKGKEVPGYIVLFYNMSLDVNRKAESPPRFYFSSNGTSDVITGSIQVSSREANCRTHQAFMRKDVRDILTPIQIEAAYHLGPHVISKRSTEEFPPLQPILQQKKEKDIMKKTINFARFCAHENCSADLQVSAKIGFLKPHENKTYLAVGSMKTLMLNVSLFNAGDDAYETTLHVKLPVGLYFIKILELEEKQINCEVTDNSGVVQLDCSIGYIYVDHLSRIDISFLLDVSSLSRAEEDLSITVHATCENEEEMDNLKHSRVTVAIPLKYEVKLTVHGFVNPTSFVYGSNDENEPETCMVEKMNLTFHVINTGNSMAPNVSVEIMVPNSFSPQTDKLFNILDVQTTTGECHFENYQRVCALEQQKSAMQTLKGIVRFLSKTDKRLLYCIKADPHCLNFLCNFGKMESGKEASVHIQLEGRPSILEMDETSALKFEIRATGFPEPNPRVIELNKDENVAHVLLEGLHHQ
Sequence (P26010 20-723 limits assumed): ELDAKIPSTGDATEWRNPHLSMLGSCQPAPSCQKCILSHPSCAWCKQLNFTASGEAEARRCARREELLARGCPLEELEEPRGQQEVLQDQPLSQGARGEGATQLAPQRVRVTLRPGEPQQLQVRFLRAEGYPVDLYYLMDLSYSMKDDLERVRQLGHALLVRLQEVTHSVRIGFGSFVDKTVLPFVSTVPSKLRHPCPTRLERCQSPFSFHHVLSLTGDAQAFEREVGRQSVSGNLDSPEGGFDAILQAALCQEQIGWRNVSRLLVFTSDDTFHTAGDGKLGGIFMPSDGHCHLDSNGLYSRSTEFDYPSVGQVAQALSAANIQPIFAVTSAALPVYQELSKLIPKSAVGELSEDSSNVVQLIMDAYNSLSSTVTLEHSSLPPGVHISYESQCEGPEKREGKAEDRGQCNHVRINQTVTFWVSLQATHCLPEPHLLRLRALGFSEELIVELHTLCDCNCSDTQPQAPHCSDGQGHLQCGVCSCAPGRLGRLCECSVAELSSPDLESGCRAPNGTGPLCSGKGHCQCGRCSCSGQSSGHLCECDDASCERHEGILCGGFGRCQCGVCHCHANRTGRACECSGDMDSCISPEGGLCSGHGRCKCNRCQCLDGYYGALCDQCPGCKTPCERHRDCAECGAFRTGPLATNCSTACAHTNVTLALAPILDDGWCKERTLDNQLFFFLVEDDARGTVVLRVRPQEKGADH
Test: Integrin α4β7—MAdCAM-1 ELISA competition assay
Type: binding
Details: ratio of a4b1 to a4b7 ELISA IC50
Kindly supply the reported ELISA Assay Ratio b1/b7 values for the records listed here.
Could you respond with only the numeric value?

Looking up CC(C)C[C@@H]1NC(=O)[C@H]2CCCCN2C(=O)[C@H](Cc2ccc(-c3ccccc3)cc2)NC(=O)[C@@H]2CCCN2[C@H](C(=O)NC(C)(C)C)[C@H](C)NC(=O)[C@H]([C@@H](C)O)NC(=O)[C@H](CC(=O)O)NC1=O [Compound 138] , I found its ELISA Assay Ratio b1/b7 recorded as 5.0

Looking up CC(C)C[C@@H]1NC(=O)[C@H](C2CCCCC2)NC(=O)[C@@H]2CCCN2[C@H](C(=O)NC(C)(C)C)[C@H](C)NC(=O)[C@H]([C@@H](C)O)NC(=O)[C@H](CC(=O)O)NC1=O [Compound 91] , I found its ELISA Assay Ratio b1/b7 recorded as 14.5

Looking up CC[C@H](C)[C@@H]1NC(=O)[C@H](CC(=O)O)NC(=O)[C@H](CC(C)C)NC(=O)C[C@H](CCCCN)NC(=O)[C@@H](Cc2ccc(CN)cc2)NC(=O)[C@@H]2CCCN2[C@H](C(=O)NC(C)(C)C)[C@H](C)NC1=O [Compound 253] , I found its ELISA Assay Ratio b1/b7 recorded as 15.6

Looking up Cc1noc(C)c1-c1ccccc1C[C@H]1NC(=O)[C@@H]2CCCN2[C@H](C(=O)NC(C)(C)C)[C@H](C)NC(=O)[C@H]([C@@H](C)O)NC(=O)[C@H](CC(=O)O)NC(=O)[C@H](CC(C)C)NC(=O)C[C@H](CCCCN)NC1=O [Compound 276] , I found its ELISA Assay Ratio b1/b7 recorded as 106.2

Looking up C=CCOc1ccc(C[C@@H]2NC(=O)[C@@H]3CCCN3[C@H](C(=O)NC(C)(C)C)[C@H](C)NC(=O)[C@H]([C@@H](C)O)NC(=O)[C@H](CC(=O)O)NC(=O)[C@H](CC(C)C)NC(=O)[C@@H](C(C)C)NC2=O)cc1 [Compound 166] , I found its ELISA Assay Ratio b1/b7 recorded as 7.7

Looking up CC(C)C[C@@H]1NC(=O)[C@H]2CCCCN2C(=O)[C@@H]2CCCN2[C@H](C(=O)NC(C)(C)C)[C@H](C)NC(=O)[C@H]([C@@H](C)O)NC(=O)[C@H](CC(=O)O)NC1=O [Compound 51] , I found its ELISA Assay Ratio b1/b7 recorded as 3.3

Looking up CC[C@H](C)[C@@H]1NC(=O)[C@H](CC(=O)O)NC(=O)[C@H](CC(C)C)NC(=O)[C@@H](CCCCN)N(C)C(=O)[C@H](Cc2ccc(O)cc2)NC(=O)[C@@H]2CCCN2[C@H](C(=O)NC(C)(C)C)[C@H](C)NC1=O [Compound 154] , I found its ELISA Assay Ratio b1/b7 recorded as 22.8
